Reported fraction of imaged embryos annotated as normal kidney by item:
tested on: Danio rerio Tg(wt1b:EGFP) embryo, pronephros; assay: fraction of imaged embryos annotated as normal kidney; higher = less nephrotoxic; extreme values may be limits of the assay; details: 25 µM; exposure: 24-48 hpf
Counter-ions that a name gives are not always drawn.
EXPERIMENTAL READOUT: fraction of imaged embryos annotated as normal kidney

[[record]]
compound = "COc1ccc(-c2ccc(=N)n(CCCC(=O)O)n2)cc1 [Gabazine bromide]"
observed = 0.667

[[record]]
compound = "Nc1nc(CC(=O)Nc2ccc(CCNC[C@H](O)c3ccccc3)cc2)cs1 [Mirabegron]"
observed = 0.833

[[record]]
compound = "NC(=O)OCC(O)COc1ccc(Cl)cc1 (stereo not drawn) [Chlorphensin carbamate]"
observed = 0.833

[[record]]
compound = "Clc1ccc(Cn2c(CN3CCCC3)nc3ccccc32)cc1 [Clemizole hydrochloride]"
observed = 0.545

[[record]]
compound = "CCC(=O)O[C@@H](O[P@](=O)(CCCCc1ccccc1)CC(=O)N1C[C@H](C2CCCCC2)C[C@H]1C(=O)O)C(C)C [Fosinopril]"
observed = 0.7

[[record]]
compound = "CN(C)C(=O)C(CCN1CCC(O)(c2ccc(Cl)cc2)CC1)(c1ccccc1)c1ccccc1 [Loperamide hydrochloride]"
observed = 0.667

[[record]]
compound = "Nc1ccc(C(=O)NCC(=O)O)cc1 [Aminohippuric acid]"
observed = 0.917

[[record]]
compound = "Cc1ccc(S(=O)(=O)NC(=O)NN2CCCCCC2)cc1 [Tolazamide]"
observed = 0.917

[[record]]
compound = "CO/N=C(\\C(=O)N[C@@H]1C(=O)N2C(C(=O)OC(C)OC(C)=O)=C(COC(N)=O)CS[C@H]12)c1ccco1 (stereo partly drawn) [Cefuroxime axetil]"
observed = 0.917

[[record]]
compound = "NS(=O)(=O)c1cc2c(cc1C(F)(F)F)NC(Cc1ccccc1)NS2(=O)=O (stereo not drawn) [Bendroflumethiazide]"
observed = 0.875

[[record]]
compound = "CC(C)/N=c1\\cc2n(-c3ccc(Cl)cc3)c3ccccc3nc-2cc1Nc1ccc(Cl)cc1 [Clofazimine]"
observed = 0.75

[[record]]
compound = "Cc1cc(NS(=O)(=O)c2ccc(N)cc2)no1 [Sulfamethoxazole]"
observed = 0.833

[[record]]
compound = "Oc1ccc(C2CNCCc3c2cc(O)c(O)c3Cl)cc1 (stereo not drawn) [Fenoldopam]"
observed = 0.917

[[record]]
compound = "CC[C@H]1OC(=O)[C@H](C)[C@@H](O[C@H]2C[C@@](C)(OC)[C@@H](O)[C@H](C)O2)[C@H](C)[C@@H](O[C@@H]2O[C@H](C)C[C@H](N(C)C)[C@H]2O)[C@](C)(O)C[C@@H](C)[C@@H]2N[C@@H](COCCOC)O[C@H]([C@H]2C)[C@]1(C)O [Dirithromycin]"
observed = 1

[[record]]
compound = "CC(=O)O[C@]1(C(C)=O)CC[C@H]2[C@@H]3C=C(Cl)C4=CC(=O)CC[C@]4(C)[C@H]3CC[C@@]21C [Chlormadinone acetate]"
observed = 0.636

[[record]]
compound = "COC(c1ccccc1)(c1ccccc1)[C@H](Oc1nc(C)cc(C)n1)C(=O)O [Ambrisentan]"
observed = 0.833

[[record]]
compound = "CN(C)CCN(Cc1ccc(Cl)cc1)c1ccccn1 [Chloropyramine hydrochloride]"
observed = 0.917

[[record]]
compound = "N=C(N)c1ccc(OCCCCCOc2ccc(C(=N)N)cc2)cc1 [Pentamidine isethionate]"
observed = 1

[[record]]
compound = "O=C(O)CCC(=O)c1ccc(-c2ccccc2)cc1 [Fenbufen]"
observed = 0.0909

[[record]]
compound = "CN(C)[C@@H]1C(O)=C(C(N)=O)C(=O)[C@@]2(O)C(O)=C3C(=O)c4c(O)ccc(Cl)c4[C@@H](O)[C@H]3C[C@@H]12 [Demeclocycline hydrochloride]"
observed = 0.5

[[record]]
compound = "CC[C@H]1OC(=O)[C@H](C)[C@@H](O[C@H]2C[C@@](C)(OC)[C@@H](O)[C@H](C)O2)[C@H](C)[C@@H](O[C@@H]2O[C@H](C)C[C@H](N(C)C)[C@H]2O)[C@](C)(OC)C[C@@H](C)C(=O)[C@H](C)[C@@H](O)[C@]1(C)O [Clarithromycin]"
observed = 1

[[record]]
compound = "C=C1c2c(Cl)ccc(O)c2C(=O)C2=C(O)[C@]3(O)C(=O)C(C(N)=O)=C(O)[C@@H](N(C)C)[C@@H]3[C@@H](O)[C@H]12.O=C(O)c1cc(S(=O)(=O)O)ccc1O [Meclocycline sulfosalicylate]"
observed = 0.917

[[record]]
compound = "C=C1c2cccc(O)c2C(=O)C2=C(O)[C@]3(O)C(=O)C(C(N)=O)=C(O)[C@@H](N(C)C)[C@@H]3[C@@H](O)[C@H]12 [Methacycline hydrochloride]"
observed = 0.818

[[record]]
compound = "O=C1OCCN1/N=C/c1ccc([N+](=O)[O-])o1 [Furazolidone]"
observed = 1

[[record]]
compound = "CC(=O)CC(c1ccccc1)c1c(O)c2ccccc2oc1=O (stereo not drawn) [Warfarin]"
observed = 0.333

[[record]]
compound = "CCc1nn(CCCN2CCN(c3cccc(Cl)c3)CC2)c(=O)n1CCOc1ccccc1 [Nefazodone hydrochloride]"
observed = 0.727

[[record]]
compound = "CC1(C)O[C@@H]2C[C@H]3[C@@H]4CCC5=CC(=O)C=C[C@]5(C)[C@H]4[C@@H](O)C[C@]3(C)[C@]2(C(=O)CO)O1 [Desonide]"
observed = 0.167

[[record]]
compound = "OCCN1CCN(CC/C=C2/c3ccccc3Sc3ccc(Cl)cc32)CC1 [Zuclopenthixol dihydrochloride]"
observed = 0.833

